Reference source for all entries: patent US8209131B2

Form field: Kd (one value per entry).
Assay: BIAcore binding of proteins to heparin immobilised on a biosensor chip
Conditions: IL-4 WT and mutants binding to heparin; read-out: KD
MEASURED PARAMETER: Kd (nM)

>  <MOLECULE>
E60A: IL-4 mutant, baculovirus expressed (protein) HKCDITLQEIIKTLNSLTEQKTLCTELTVTDIFAASKNTTEKETFCRAATVLRQFYSHHAKDTRCLGATAQQFHRHKQLIRFLKRLDRNLWGLAGLNSCPVKEANQSTLENFLERLKTIMREKYSKCSS

>  <READOUT VALUE>
32.7

$$$$
>  <MOLECULE>
R121A: IL-4 mutant, baculovirus expressed (protein) HKCDITLQEIIKTLNSLTEQKTLCTELTVTDIFAASKNTTEKETFCRAATVLRQFYSHHEKDTRCLGATAQQFHRHKQLIRFLKRLDRNLWGLAGLNSCPVKEANQSTLENFLERLKTIMAEKYSKCSS

>  <READOUT VALUE>
41.5

$$$$
>  <MOLECULE>
E9A: IL-4 mutant, baculovirus expressed (protein) HKCDITLQAIIKTLNSLTEQKTLCTELTVTDIFAASKNTTEKETFCRAATVLRQFYSHHEKDTRCLGATAQQFHRHKQLIRFLKRLDRNLWGLAGLNSCPVKEANQSTLENFLERLKTIMREKYSKCSS

>  <READOUT VALUE>
49.3

$$$$
>  <MOLECULE>
R85A: IL-4 mutant, baculovirus expressed (protein) HKCDITLQEIIKTLNSLTEQKTLCTELTVTDIFAASKNTTEKETFCRAATVLRQFYSHHEKDTRCLGATAQQFHRHKQLIRFLKALDRNLWGLAGLNSCPVKEANQSTLENFLERLKTIMREKYSKCSS

>  <READOUT VALUE>
23.4

$$$$
>  <MOLECULE>
K77A/R53A: IL-4 double mutant (protein) HKCDITLQEIIKTLNSLTEQKTLCTELTVTDIFAASKNTTEKETFCRAATVLAQFYSHHEKDTRCLGATAQQFHRHAQLIRFLKRLDRNLWGLAGLNSCPVKEANQSTLENFLERLKTIMREKYSKCSS

>  <READOUT VALUE>
172

$$$$
